- Tested on: HT29
- testDescription: cells
- Assay type: cell-based
- experimentalParameters: Homo sapiens, HT-29, read-out: growth inhibition % (GI%)
Listing of entries alongside the reported inhibition at 10 µM.
quantityMeasured: inhibition at 10 µM (%)

[[record]]
compound = "O=C(CSc1nc2ccccc2c(=O)n1-c1ccccc1)NN=Cc1ccc(Oc2ccc(Br)cc2)cc1 [6b]"
assayedtarget = "HT29"
valuemeasured = 61.8

[[record]]
compound = "O=C(CSc1nc2ccccc2c(=O)n1-c1ccc(Cl)cc1)NN=Cc1ccc(Oc2ccc(Cl)cc2)cc1 [6d]"
assayedtarget = "HT29"
valuemeasured = 98.2

[[record]]
compound = "COc1ccc(Oc2ccc(C=NNC(=O)CSc3nc4ccccc4c(=O)n3-c3ccc(Cl)cc3)cc2)cc1 [6f]"
assayedtarget = "HT29"
valuemeasured = 83.9

[[record]]
compound = "O=C(CSc1nc2ccccc2c(=O)n1-c1ccccc1)NN=Cc1ccc(Oc2ccc(Cl)cc2)cc1 [6a]"
assayedtarget = "HT29"
valuemeasured = 40.9

[[record]]
compound = "O=C(CSc1nc2ccccc2c(=O)n1-c1ccc(Cl)cc1)NN=Cc1ccc(N2CCCCC2)cc1 [6j]"
assayedtarget = "HT29"
valuemeasured = 39.1


###

- Test system: NCI-H226
- testDescription: cells
- Type: cell-based
- experimentalParameters: Homo sapiens; NCI-H226; 10 μM; supplementary table 3a-g; read-out: growth inhibition % (GI %)
quantityMeasured: inhibition at 10 µM

[[record]]
molecule = "O=c1c2ccccc2nc(NN=Cc2ccc(Oc3ccc(Cl)cc3)cc2)n1-c1ccc(Cl)cc1 [3d]"
valuemeasured = "< 15%"

[[record]]
molecule = "CN1CCN(c2ccc(C=NNc3nc4ccccc4c(=O)n3-c3ccccc3)cc2)CC1 [3g]"
valuemeasured = "< 15%"

[[record]]
molecule = "O=c1c2ccccc2nc(NN=Cc2ccc(N3CCCCC3)cc2)n1-c1ccccc1 [3e]"
valuemeasured = "< 15%"

[[record]]
molecule = "COc1ccc(Oc2ccc(C=NNc3nc4ccccc4c(=O)n3-c3ccccc3)cc2)cc1 [3c]"
valuemeasured = "15.2%"

[[record]]
molecule = "O=c1c2ccccc2nc(NN=Cc2ccc(N3CCOCC3)cc2)n1-c1ccccc1 [3f]"
valuemeasured = "< 15%"

[[record]]
molecule = "O=c1c2ccccc2nc(NN=Cc2ccc(Oc3ccc(Cl)cc3)cc2)n1-c1ccccc1 [3a]"
valuemeasured = "< 15%"


###

# inhibition at 10 µM per record follows
- Tested on: HCC-2998
- testDescription: cells
- Type: cell-based
- experimentalParameters: Homo sapiens, HCC 2998, read-out: growth inhibition % (GI%)
quantityMeasured: inhibition at 10 µM

[[record]]
compound = "O=C(CSc1nc2ccccc2c(=O)n1-c1ccc(Cl)cc1)NN=Cc1ccc(N2CCCCC2)cc1 [6j]"
quantitymeasured = "inhibition at 10 µM"
valuemeasured = "< 15%"

[[record]]
compound = "O=C(CSc1nc2ccccc2c(=O)n1-c1ccccc1)NN=Cc1ccc(Oc2ccc(Br)cc2)cc1 [6b]"
quantitymeasured = "inhibition at 10 µM"
valuemeasured = "< 15%"

[[record]]
compound = "O=C(CSc1nc2ccccc2c(=O)n1-c1ccccc1)NN=Cc1ccc(Oc2ccc(Cl)cc2)cc1 [6a]"
quantitymeasured = "inhibition at 10 µM"
valuemeasured = "< 15%"

